This collection of values is drawn from patent US7442240B2.

# Test system: saccharomyces cerevisiae
# Test description: lowest bacteriostasis concentration, tube double dilution method
# Type: cell-based
# Run parameters: 24 hours, 37° C.
Field: lowest bacteriostasis concentration. Provide a value for each of the compounds that follow.
Give bare numbers, in µg/mL.

>  <Structure smiles string>
CCOCCCn1sc(Cl)c(Cl)c1=O

>  <Experimental target>
saccharomyces cerevisiae

>  <Recorded value>
8

$$$$
>  <Structure smiles string>
O=c1c(Cl)c(Cl)sn1CCCOCCOc1ccc(Cl)cc1

>  <Experimental target>
saccharomyces cerevisiae

>  <Recorded value>
8

$$$$
>  <Structure smiles string>
COCCOCCCn1sc(Cl)c(Cl)c1=O

>  <Experimental target>
saccharomyces cerevisiae

>  <Recorded value>
16

$$$$
>  <Structure smiles string>
COCCCn1sc(Cl)c(Cl)c1=O

>  <Experimental target>
saccharomyces cerevisiae

>  <Recorded value>
16

$$$$
>  <Structure smiles string>
CC(C)OCCCn1sc(Cl)c(Cl)c1=O

>  <Experimental target>
saccharomyces cerevisiae

>  <Recorded value>
8

$$$$

Next, consider the following compound.
Could you tell me which lowest bacteriostasis concentration is on file for `CCCCOCCCn1sc(Cl)c(Cl)c1=O` ? 4
